# Assay system: STAT6 (Homo sapiens)
# Construct: stably transfected HaCaT keratinocyte cell line, which expresses NanoLuc luciferase reporter gene under the transcriptional control of the STAT6 responsive promoter; endogenous in cells; host or cells: HaCaT keratinocyte reporter cell line (stably transfected with a NanoLuc reporter)
# Sequence (P42226 whole entry): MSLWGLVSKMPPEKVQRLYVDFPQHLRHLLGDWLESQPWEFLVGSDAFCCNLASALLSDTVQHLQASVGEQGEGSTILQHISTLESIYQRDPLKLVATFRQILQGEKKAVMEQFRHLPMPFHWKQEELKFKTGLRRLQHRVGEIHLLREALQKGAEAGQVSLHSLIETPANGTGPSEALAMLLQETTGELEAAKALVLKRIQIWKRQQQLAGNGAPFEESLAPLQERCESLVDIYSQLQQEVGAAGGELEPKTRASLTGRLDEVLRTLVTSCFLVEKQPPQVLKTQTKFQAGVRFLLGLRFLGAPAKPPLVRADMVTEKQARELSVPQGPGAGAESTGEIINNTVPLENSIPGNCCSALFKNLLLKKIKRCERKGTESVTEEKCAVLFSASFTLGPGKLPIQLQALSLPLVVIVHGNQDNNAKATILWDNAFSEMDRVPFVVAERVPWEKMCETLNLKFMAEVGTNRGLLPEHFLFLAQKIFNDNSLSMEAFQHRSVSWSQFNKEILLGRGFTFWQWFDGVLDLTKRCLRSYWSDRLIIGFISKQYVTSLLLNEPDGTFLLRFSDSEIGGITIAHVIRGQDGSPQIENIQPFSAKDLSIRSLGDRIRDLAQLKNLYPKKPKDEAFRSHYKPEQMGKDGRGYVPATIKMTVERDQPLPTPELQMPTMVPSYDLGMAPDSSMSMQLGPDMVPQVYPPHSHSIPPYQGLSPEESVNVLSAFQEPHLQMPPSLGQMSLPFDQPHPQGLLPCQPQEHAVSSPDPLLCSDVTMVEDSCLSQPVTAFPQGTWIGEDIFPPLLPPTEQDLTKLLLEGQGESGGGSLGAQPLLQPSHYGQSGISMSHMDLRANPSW
# Assay: STAT6 Reporter Luciferase Assay (IL-13 stimulated HaCaT keratinocyte NanoLuc reporter cells)
# Type: cell-based
# Condition info: IL-13 stimulated HaCaT STAT6 NanoLuc reporter cells; read-out: Reporter EC50
# Text: Pharmacological measurements of STAT6 transcriptional activity through the IL-13-IL-13 receptor/IL-4 receptor pathway were made with a stably transfected HaCaT keratinocyte cell line, which expresses NanoLuc luciferase reporter gene under the transcriptional control of the STAT6 responsive promoter for IL-13Ra2. The readout of the STAT6 activity utilized Promega Nano-Glo Luciferase assay kit. […]
Parameter measured: EC50 (nM)

CC(C)n1nc(C(=O)NCc2ccc(NC(=O)N(C)C)cc2)c2c1CCN(c1ccc(C(=O)N3CCC(O)CC3)cn1)C2 :: 310

1. CC(C)n1nc(C(=O)NCc2ccc(NC(=O)N3CCC4(CCN(C)C4)CC3)c(F)c2)c2c1[C@@H](C)CN(c1ccc(C(=O)N(C)C)cc1)C2
2. CC(CC#N)n1nc(C(=O)NCc2ccc(NC(=O)N(C)C)cc2)c2c1CCN(c1ccc(C(=O)N(C)C)cn1)C2 (single isomer, unassigned) [Example 347]
Larger number for EC50: 1 , or 2 ? # answer = label of selected item
2
